Target or system human muscarinic M3 receptor (Homo sapiens, UniProt P20309); recorded quantity muscarinic M3 receptor-positive allosteric modulator activity, 10 μM (-fold shift).

Below, 2 compounds whose answers are already recorded.
INPUT: Requested field: muscarinic M3 receptor-positive allosteric modulator activity, 10 μM (-fold shift). Item: CC(C(=O)O)N1CCN(c2cnc(C(=O)Nc3nc(-c4cc(F)cc(C(F)(F)F)c4)c(CN4CCC[C@H]4C)s3)cn2)CC1 (stereo partly drawn)
OUTPUT: 128 -fold shift

INPUT: Requested field: muscarinic M3 receptor-positive allosteric modulator activity, 10 μM (-fold shift). Item: C[C@@H]1CCCN1Cc1sc(NC(=O)c2cnc(N3CCN(CC(=O)O)CC3)cn2)nc1-c1cc(Cl)cc(C(F)(F)F)c1
OUTPUT: 326 -fold shift

New cases:
INPUT: Requested field: muscarinic M3 receptor-positive allosteric modulator activity, 10 μM (-fold shift). Item: CC[C@@H]1CCCN1Cc1sc(NC(=O)c2cnc(N3CCN(CCC(=O)O)CC3)cn2)nc1-c1cc(C2CC2)cc(C(F)(F)F)c1
OUTPUT: 177 -fold shift

====

Measured muscarinic M3 receptor-positive allosteric modulator activity, 10 μM (-fold shift) of individual entries
- Measured Target: human muscarinic M3 receptor (Homo sapiens)
- Sequence (P20309 whole entry): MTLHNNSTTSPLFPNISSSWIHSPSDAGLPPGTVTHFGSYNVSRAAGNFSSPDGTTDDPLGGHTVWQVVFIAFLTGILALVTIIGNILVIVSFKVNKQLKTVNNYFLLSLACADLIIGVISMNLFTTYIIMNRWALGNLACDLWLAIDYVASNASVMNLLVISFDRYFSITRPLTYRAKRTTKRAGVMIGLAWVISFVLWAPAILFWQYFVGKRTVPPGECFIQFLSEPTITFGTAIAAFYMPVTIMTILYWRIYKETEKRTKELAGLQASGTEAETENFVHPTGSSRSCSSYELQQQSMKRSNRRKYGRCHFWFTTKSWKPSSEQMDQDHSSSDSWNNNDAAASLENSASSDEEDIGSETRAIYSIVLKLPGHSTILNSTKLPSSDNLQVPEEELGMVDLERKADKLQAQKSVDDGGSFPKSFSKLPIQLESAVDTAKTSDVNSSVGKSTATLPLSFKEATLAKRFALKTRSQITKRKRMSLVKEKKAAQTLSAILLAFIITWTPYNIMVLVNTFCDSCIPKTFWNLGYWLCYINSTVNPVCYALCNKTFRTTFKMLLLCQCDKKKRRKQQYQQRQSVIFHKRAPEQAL

Below, 5 compounds whose answers are already recorded.
INPUT: // lookup muscarinic M3 receptor-positive allosteric modulator activity, 10 μM (-fold shift) | system=human muscarinic M3 receptor (Homo sapiens) | key= COc1ncc(-c2nc(NC(=O)c3cnc(N4CCN(CCC(=O)O)CC4)cn3)sc2CN2CCC[C@H]2C)cc1C(F)(F)F
OUTPUT: 182 -fold shift

INPUT: // lookup muscarinic M3 receptor-positive allosteric modulator activity, 10 μM (-fold shift) | system=human muscarinic M3 receptor (Homo sapiens) | key= C[C@H]1CN(c2cnc(C(=O)Nc3nc(-c4cc(Cl)cs4)c(CN(C)CC4CC4)s3)cn2)CCN1CCC(=O)O
OUTPUT: 192 -fold shift

INPUT: // lookup muscarinic M3 receptor-positive allosteric modulator activity, 10 μM (-fold shift) | system=human muscarinic M3 receptor (Homo sapiens) | key= CCOc1ccc(-c2nc(NC(=O)c3cnc(N4CCN(CCC(=O)O)CC4)cn3)sc2CN2CCC[C@H]2C)cc1C(F)(F)F
OUTPUT: 134 -fold shift

INPUT: // lookup muscarinic M3 receptor-positive allosteric modulator activity, 10 μM (-fold shift) | system=human muscarinic M3 receptor (Homo sapiens) | key= C[C@@H]1CCCN1Cc1sc(NC(=O)c2cnc(N3CCN(CC(=O)O)CC3)cn2)nc1-c1cc(C(F)(F)F)cs1
OUTPUT: 307 -fold shift

INPUT: // lookup muscarinic M3 receptor-positive allosteric modulator activity, 10 μM (-fold shift) | system=human muscarinic M3 receptor (Homo sapiens) | key= C[C@@H]1CCCN1Cc1sc(NC(=O)c2cnc(N3CCN(CCC(=O)O)CC3)cn2)nc1-c1cc(Cl)cc(C(F)(F)F)c1
OUTPUT: 226 -fold shift

New cases:
INPUT: // lookup muscarinic M3 receptor-positive allosteric modulator activity, 10 μM (-fold shift) | system=human muscarinic M3 receptor (Homo sapiens) | key= CC[C@@H]1CCCN1Cc1sc(NC(=O)c2cnc(N3CCN(CC(=O)O)CC3)cn2)nc1-c1ccc(OC)c(C(F)(F)F)c1
OUTPUT: 160 -fold shift

INPUT: // lookup muscarinic M3 receptor-positive allosteric modulator activity, 10 μM (-fold shift) | system=human muscarinic M3 receptor (Homo sapiens) | key= CC(C)CN(C)Cc1sc(NC(=O)c2cnc(N3CCN(CCC(=O)O)CC3)cn2)nc1-c1cc(F)cc(C(F)(F)F)c1
OUTPUT: 318 -fold shift

INPUT: // lookup muscarinic M3 receptor-positive allosteric modulator activity, 10 μM (-fold shift) | system=human muscarinic M3 receptor (Homo sapiens) | key= CCN(Cc1sc(NC(=O)c2cnc(N3CCN(CCC(=O)O)CC3)cn2)nc1-c1cc(F)cc(C(F)(F)F)c1)C(C)C
OUTPUT: 270 -fold shift

INPUT: // lookup muscarinic M3 receptor-positive allosteric modulator activity, 10 μM (-fold shift) | system=human muscarinic M3 receptor (Homo sapiens) | key= Cc1cc(OC(F)(F)F)cc(-c2nc(NC(=O)c3cnc(N4CCN(CCC(=O)O)CC4)cn3)sc2CN2CCC[C@H]2C)c1
OUTPUT: 199 -fold shift

INPUT: // lookup muscarinic M3 receptor-positive allosteric modulator activity, 10 μM (-fold shift) | system=human muscarinic M3 receptor (Homo sapiens) | key= COc1c(F)cc(-c2nc(NC(=O)c3cnc(N4CCN(CCC(=O)O)C[C@@H]4C)cn3)sc2CN2CCC[C@H]2C)cc1C(F)(F)F
OUTPUT: 139 -fold shift

INPUT: // lookup muscarinic M3 receptor-positive allosteric modulator activity, 10 μM (-fold shift) | system=human muscarinic M3 receptor (Homo sapiens) | key= C[C@@H]1CCCN1Cc1sc(NC(=O)c2cnc(N3CCN(CC(=O)O)CC3)cn2)nc1-c1cc(Cl)cs1
OUTPUT: 287 -fold shift

INPUT: // lookup muscarinic M3 receptor-positive allosteric modulator activity, 10 μM (-fold shift) | system=human muscarinic M3 receptor (Homo sapiens) | key= C[C@@H]1CCCN1Cc1sc(NC(=O)c2cnc(N3CCN(CCC(=O)O)C[C@H]3C)cn2)nc1-c1cc(F)cc(C(F)(F)F)c1
OUTPUT: 158 -fold shift

====

- Tested on: pelvic nerve stimulation-induced elevation of intravesical pressure
- Measurement Notes: Test Example 4: effect on pelvic nerve stimulation-induced elevation of intravesical pressure in anesthetized rats
- Format: in vivo, rat
- Stated Conditions: 3 mg/kg intravenous; maximum effect within one hour; anesthetized SD female rats; pre-treatment = 100%
Measured Increase rate (% of pre) of intravesical pressure of individual entries

INPUT: Requested field: Increase rate (% of pre) of intravesical pressure. Item: CC[C@@H]1CCCN1Cc1sc(NC(=O)c2cnc(N3CCN(CCC(=O)O)C[C@H]3C)cn2)nc1-c1ccc(OC(C)C)c(C(F)(F)F)c1
OUTPUT: 168 % of pre

INPUT: Requested field: Increase rate (% of pre) of intravesical pressure. Item: CC[C@@H]1CCCN1Cc1sc(NC(=O)c2cnc(N3CCN(CCC(=O)O)CC3)cn2)nc1-c1cccc(C(F)(F)F)c1
OUTPUT: 128 % of pre

Now look at this one.
INPUT: Requested field: Increase rate (% of pre) of intravesical pressure. Item: Cc1cc(OC(F)(F)F)cc(-c2nc(NC(=O)c3cnc(N4CCN(CCC(=O)O)CC4)cn3)sc2CN2CCC[C@H]2C)c1
OUTPUT: 126 % of pre

====

Measured muscarinic M3 receptor-positive allosteric modulator activity, 10 μM (-fold shift) of individual entries
- Measured Target: human muscarinic M3 receptor (Homo sapiens)

Below, 3 molecules whose answers are already recorded.
INPUT: Requested field: muscarinic M3 receptor-positive allosteric modulator activity, 10 μM (-fold shift). Item: C[C@@H]1CCCN1Cc1sc(NC(=O)c2cnc(N3CCN(CC(=O)O)C[C@H]3C)cn2)nc1-c1cc(F)cc(C(F)(F)F)c1
OUTPUT: 159 -fold shift

INPUT: Requested field: muscarinic M3 receptor-positive allosteric modulator activity, 10 μM (-fold shift). Item: C[C@@H]1CCCN1Cc1sc(NC(=O)c2cnc(N3CCN(CCC(=O)O)CC3)cn2)nc1-c1cc(F)cc(C(F)(F)F)c1
OUTPUT: 224 -fold shift

INPUT: Requested field: muscarinic M3 receptor-positive allosteric modulator activity, 10 μM (-fold shift). Item: CC[C@@H]1CCCN1Cc1sc(NC(=O)c2cnc(N3CCN(CCC(=O)O)[C@H](C)C3)cn2)nc1-c1cc(Cl)cs1
OUTPUT: 81 -fold shift

New cases:
INPUT: Requested field: muscarinic M3 receptor-positive allosteric modulator activity, 10 μM (-fold shift). Item: C[C@@H]1CCCN1Cc1sc(NC(=O)c2cnc(N3CCN(CC(=O)O)CC3)cn2)nc1-c1ccc(F)c(C(F)(F)F)c1
OUTPUT: 229 -fold shift

INPUT: Requested field: muscarinic M3 receptor-positive allosteric modulator activity, 10 μM (-fold shift). Item: CC[C@@H]1CCCN1Cc1sc(NC(=O)c2cnc(N3CCN(CCC(=O)O)CC3)cn2)nc1-c1ccc(OC)c(C(F)(F)F)c1
OUTPUT: 141 -fold shift

INPUT: Requested field: muscarinic M3 receptor-positive allosteric modulator activity, 10 μM (-fold shift). Item: Cc1cc(-c2nc(NC(=O)c3cnc(N4CCN(CC(=O)O)CC4)cn3)sc2CN2CCC[C@H]2C)cc(C(F)(F)F)c1
OUTPUT: 151 -fold shift

====

- Measured Target: UniProt P20309
Measured muscarinic M3 receptor-positive allosteric modulator activity, 1 μM (-fold shift) of individual entries

INPUT: Requested field: muscarinic M3 receptor-positive allosteric modulator activity, 1 μM (-fold shift). Item: COc1cc(-c2nc(NC(=O)c3cnc(N4CCN(CCC(=O)O)CC4)cn3)sc2CN2CCC[C@H]2C)cc(C(F)(F)F)c1
OUTPUT: 36 -fold shift
